Numbers sourced from patent US11932606B2.

- System: TG-1
- assay.comment: AML cell viability (CellTiter-Glo, day 7)
- Type: cell-based
- condition.description: TG1, 168 h; TG-1, day 7; read-out: Cell viability IC50
pIC50: −log10 of the molar value.
result.type: pIC50

QUERY: Please indicate recorded pIC50 of Nc1nccc2c(Br)cc3cc(C(=O)[O-])ccc3c12.[Na+] [Compound 29] measured with TG-1.
RESULT: > 6.00

###

Recorded pIC50, one value per entry.
- test.target: HIPK2 (Homo sapiens (Human))
- Sequence (Q9H2X6 whole entry): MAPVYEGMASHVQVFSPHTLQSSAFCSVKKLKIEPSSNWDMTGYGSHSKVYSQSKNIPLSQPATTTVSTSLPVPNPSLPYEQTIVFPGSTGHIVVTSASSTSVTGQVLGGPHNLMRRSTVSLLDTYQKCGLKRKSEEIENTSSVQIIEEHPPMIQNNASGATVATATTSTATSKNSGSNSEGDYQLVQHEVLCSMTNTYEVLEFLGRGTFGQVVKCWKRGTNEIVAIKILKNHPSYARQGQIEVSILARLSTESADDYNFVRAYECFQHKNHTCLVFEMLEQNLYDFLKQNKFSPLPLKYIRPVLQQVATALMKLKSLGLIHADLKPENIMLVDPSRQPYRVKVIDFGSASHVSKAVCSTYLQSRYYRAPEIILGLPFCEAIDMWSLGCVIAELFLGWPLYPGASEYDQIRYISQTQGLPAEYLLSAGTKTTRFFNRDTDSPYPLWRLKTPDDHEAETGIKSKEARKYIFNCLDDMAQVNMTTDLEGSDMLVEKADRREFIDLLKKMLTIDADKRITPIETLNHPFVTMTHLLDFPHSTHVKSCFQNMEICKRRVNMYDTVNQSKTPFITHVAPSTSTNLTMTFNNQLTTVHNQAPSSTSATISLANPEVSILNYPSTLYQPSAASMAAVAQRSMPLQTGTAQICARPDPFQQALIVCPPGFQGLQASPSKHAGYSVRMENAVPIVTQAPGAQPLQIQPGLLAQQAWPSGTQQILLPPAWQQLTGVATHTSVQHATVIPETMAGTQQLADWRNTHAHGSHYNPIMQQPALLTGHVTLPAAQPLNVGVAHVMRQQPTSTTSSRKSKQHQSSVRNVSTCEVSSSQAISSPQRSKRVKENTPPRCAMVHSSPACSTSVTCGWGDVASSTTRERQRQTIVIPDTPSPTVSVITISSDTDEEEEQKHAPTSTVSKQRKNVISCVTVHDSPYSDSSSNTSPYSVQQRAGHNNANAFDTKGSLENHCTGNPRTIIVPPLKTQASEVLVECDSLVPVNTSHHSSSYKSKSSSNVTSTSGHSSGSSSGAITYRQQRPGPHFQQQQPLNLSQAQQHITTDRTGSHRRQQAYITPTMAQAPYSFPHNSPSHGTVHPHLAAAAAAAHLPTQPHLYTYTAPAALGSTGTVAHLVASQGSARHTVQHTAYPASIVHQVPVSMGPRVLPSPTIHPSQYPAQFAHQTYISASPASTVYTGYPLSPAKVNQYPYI
- assay.comment: HIPK2 enzymatic activity inhibition (Z'-LYTE)
- Type: biochemical
- Procedure: HIPK2 Enzymatic Activity Inhibition: Determination of IC50 Values for Selected Compounds The half maximal inhibitory concentration (IC50) with respect to HIPK2 inhibition was determined for the compounds of the invention by using Z′-LYTE™ from ThermoFisher Scientific's SelectScreen™ Biochemical Kinase Profiling Service (Waltham, MA). Compounds were screened in 1% DMSO (final) in the well. For 10 point titrations, 3-fold serial dilutions were conducted from the starting concentration. […]
pIC50: −log10 of the molar value.

QUERY: Please indicate recorded pIC50 of `O=C(O)c1ccc2c(c1)cc(NC1CCCCC1)c1ccncc12` measured with HIPK2 (Homo sapiens (Human)).
RESULT: 6.00 to 6.52

QUERY: Please indicate recorded pIC50 of `O=C(O)c1ccc2c(c1)cc(NC1CCC1)c1ccncc12` measured with HIPK2 (Homo sapiens (Human)).
RESULT: 6.00 to 6.52

QUERY: Please indicate recorded pIC50 of `O=C(O)c1ccc2c(c1)cc(NC1CCCC1)c1ccncc12` measured with HIPK2 (Homo sapiens (Human)).
RESULT: 6.00 to 6.52

QUERY: Please indicate recorded pIC50 of `O=C(O)c1ccc2c(ccc3ccnc(Cl)c32)c1` measured with HIPK2 (Homo sapiens (Human)).
RESULT: 5.30 to 6.00

QUERY: Please indicate recorded pIC50 of `O=C(O)c1ccc2c(c1)cc(Br)c1ccnc(Cl)c12` measured with HIPK2 (Homo sapiens (Human)).
RESULT: 6.00 to 6.52

Shifting focus to the molecule that follows.
QUERY: Please indicate recorded pIC50 of `O=C(O)c1ccc2c(c1)cc(N1CCCCC1)c1ccncc12` measured with HIPK2 (Homo sapiens (Human)).
RESULT: 6.00 to 6.52
